Numbers sourced from PubChem BioAssay (NCI).

- Assay Comment: NCI Yeast Anticancer Drug Screen. Data for the bub3 strain (AID 167)
- Test Context: S. cerevisiae bub3 mutant strain, at 50.0 µM (retest, dose inferred, filed as 5.0), hits give high values
Compounds without any hit were thinned out: in the full panel of roughly 79,000, 15% have a hit.
Property Name: growth inhibition (%)

Compound: O=CC(=C\c1ccco1)/C(C=O)=C\c1ccco1
Property Name: growth inhibition
Units: %
Observed Result: 33

Compound: CCOC(=O)n1c2ccccc2c(=O)n1CCO
Property Name: growth inhibition
Units: %
Observed Result: -11

Compound: CCC(=O)Nc1ccc(NC(C)=O)cc1
Property Name: growth inhibition
Units: %
Observed Result: -3

Compound: CCN(CC)c1ccc2nc3ccc(N(CC)CC)cc3[n+](-c3ccccc3)c2c1
Property Name: growth inhibition
Units: %
Observed Result: 98

Compound: N#CCCN(C(=S)Nc1ccc(Cl)c(Cl)c1)C1CCCCC1
Property Name: growth inhibition
Units: %
Observed Result: 88

Compound: O=C(Oc1c(I)ccccc1=O)c1ccc([N+](=O)[O-])cc1
Property Name: growth inhibition
Units: %
Observed Result: 98

Compound: CC(C)CCCC(C)C1CCC2C3CCC4=CC(O)CCC4(C)C3CCC12C (stereo not given)
Property Name: growth inhibition
Units: %
Observed Result: 97

Compound: COc1ccc(C2CC(c3sc(Nc4ccc(C)cc4)nc3C)=NN2)cc1 (stereo not given)
Property Name: growth inhibition
Units: %
Observed Result: 32

Compound: CC/C(=C(/CC)c1ccc([O-])cc1)c1ccc([O-])cc1.CC/C(=C(\CC)c1ccc([O-])cc1)c1ccc([O-])cc1.O=C([CH-]C(=O)c1ccccc1)c1ccccc1.O=C([CH-]C(=O)c1ccccc1)c1ccccc1.O=C([CH-]C(=O)c1ccccc1)c1ccccc1.O=C([CH-]C(=O)c1ccccc1)c1ccccc1.[Ti+4].[Ti+4]
Property Name: growth inhibition
Units: %
Observed Result: 88

Compound: COCCn1cc(F)c(=O)[nH]c1=O
Property Name: growth inhibition
Units: %
Observed Result: 5

Compound: Cc1cc2c(cc1O)CC[C@@H]1[C@@H]2CC[C@]2(C)[C@@H](O)CC[C@@H]12
Property Name: growth inhibition
Units: %
Observed Result: -29

Compound: O=c1ccc2nc3ccccc3sc-2c1
Property Name: growth inhibition
Units: %
Observed Result: 98

Compound: Cc1ccc(-c2oc(C=Nc3ccccc3)c([N+](=O)[O-])c2-c2ccc(C)cc2)cc1
Property Name: growth inhibition
Units: %
Observed Result: 95

Compound: O=C(c1cc2c(C(F)(F)F)onc2c2ccccc12)C(F)(F)F
Property Name: growth inhibition
Units: %
Observed Result: 42

Compound: CCC(/C=C/c1ccccc1)=N\Nc1ccccc1
Property Name: growth inhibition
Units: %
Observed Result: 90

Compound: COc1cc2c(cc1OC)C(N(C)C)C(c1ccccc1)=C2Cl (stereo not given)
Property Name: growth inhibition
Units: %
Observed Result: 98

Compound: COc1cc2c(cc1OC(C)=O)C(=O)C(Br)(Br)CCC2
Property Name: growth inhibition
Units: %
Observed Result: 47

Compound: CCCCCCC/C=C\C(=O)O
Property Name: growth inhibition
Units: %
Observed Result: 23

Compound: C/C=C\C(/C=C/C)(C(=O)OCCN(C)C)C(/C=C\C)(/C=C/C)C(=O)OCCN(C)C (stereo not given)
Property Name: growth inhibition
Units: %
Observed Result: 95

Compound: O=C(Nc1cc(-c2ccccc2)[nH]n1)c1ccccc1
Property Name: growth inhibition
Units: %
Observed Result: 73

Compound: O=[N+]([O-])/C(C(Cl)=C(Cl)Cl)=C(/Nc1ccccc1)SCc1ccccc1
Property Name: growth inhibition
Units: %
Observed Result: 94

Compound: CC(=O)/C(=C\c1c(Cl)cccc1Cl)C(=O)CCN(C)C
Property Name: growth inhibition
Units: %
Observed Result: 99

Compound: O=C1OC(OC/C(Br)=C(/Br)COC2OC(=O)C(Cl)=C2Cl)C(Cl)=C1Cl (stereo not given)
Property Name: growth inhibition
Units: %
Observed Result: 99

Compound: Oc1cccc(/C=C/c2ccncc2)c1
Property Name: growth inhibition
Units: %
Observed Result: 22

Compound: COc1cc(OC)cc(C2SCC(=O)N2c2nncs2)c1 (stereo not given)
Property Name: growth inhibition
Units: %
Observed Result: 13

###

- Assay Comment: NCI Yeast Anticancer Drug Screen. Data for the bub3 strain (AID 167)
- Test Context: S. cerevisiae bub3 mutant strain, at 50.0 µM, hits give high values
Compounds without any hit were thinned out: in the full panel of roughly 79,000, 15% have a hit. Activity calls are given as the source filed them. Cut-off read from the data, not from the text of the source: active = growth inhibition above about 70%; inactive = the rest.
Listing of recorded growth inhibition by entry.

Molecule: O=C1C(Br)=C(Sc2ccc([N+](=O)[O-])cc2)C(=O)c2ccccc21
growth inhibition: 96.6% (active)
--
Molecule: COc1cc2c(cc1OC)C(N(C)C)C(c1ccccc1)=C2Cl (stereo not drawn)
growth inhibition: 90.8% (active)
--
Molecule: CCCCCCCCC/C=C1\CCC(CN(C)C)C1=O (stereo not drawn)
growth inhibition: 89.5% (active)
--
Molecule: C[N+]1(C)CCCC(OCCCCCCCCCCCCCCOC2CCC[N+](C)(C)C2)C1 (stereo not drawn)
growth inhibition: 97.6% (active)
--
Molecule: O=c1cccccc1[O-].O=c1cccccc1[O-].O=c1cccccc1[O-].[Dy+3]
growth inhibition: 93.2% (active)
--
Molecule: CC(=O)Nc1ccc(/C=N\NC(=O)c2ccco2)cc1
growth inhibition: -8.45% (inactive)
--
Molecule: Nc1ccc(C(=O)/C=C/c2ccccn2)cc1
growth inhibition: 66.8% (inactive)
--
Molecule: CCOC(=O)Nc1ccc(SCC2COC(Cn3ccnc3)(c3ccc(Cl)cc3Cl)O2)cc1 (stereo not drawn)
growth inhibition: 94.5% (active)
--
Molecule: O=c1sc(=S)[nH]c2ccccc12
growth inhibition: 67.5% (inactive)
--
Molecule: COc1cccc(/C=C/C(C)=O)c1OC
growth inhibition: 5.2% (inactive)
--
Molecule: CC(C)(C)c1ccc(C(=O)n2c(=S)oc3ccc(Cl)cc32)cc1
growth inhibition: 59.5% (inactive)
--
Molecule: O=C(C(/C=N/C(=S)NCc1ccccc1)=C(/O)c1ccccc1)c1ccccc1
growth inhibition: 98.3% (active)
--
Molecule: Cn1cc(NC(=O)Nc2cc(C(=O)Nc3cc(C(=O)Nc4cc(S(=O)(=O)O)c5cc(S(=O)(=O)O)cc(S(=O)(=O)O)c5c4)n(C)c3)n(C)c2)cc1C(=O)Nc1cc(C(=O)Nc2cc(S(=O)(=O)O)c3cc(S(=O)(=O)O)cc(S(=O)(=O)O)c3c2)n(C)c1
growth inhibition: 77.5% (active)
--
Molecule: CC1(CCC(=O)O)c2ccc3ccccc3c2Oc2c1ccc1ccccc21
growth inhibition: 95.9% (active)
--
Molecule: COC(=O)c1cc2c(oc1=O)-c1ccccc1N(C=O)C2
growth inhibition: -35.1% (inactive)
--
Molecule: CCCCCCCCN(CCCCCCCC)C(=O)C(C)O (stereo not drawn)
growth inhibition: 97.5% (active)
--
Molecule: COc1ccccc1NC(=O)C1=CNC(C)=C(C(=O)Nc2ccccc2OC)C1/C=C/c1ccccc1 (stereo not drawn)
growth inhibition: -1.9% (inactive)
--
Molecule: Oc1cc(Br)cc2cccnc12
growth inhibition: 88.7% (active)
--
Molecule: c1ccc([P+](c2ccccc2)(c2ccccc2)C2CCCCO2)cc1 (stereo not drawn)
growth inhibition: 54% (inactive)
--
Molecule: C=CCc1cc([N+](=O)[O-])ccc1O
growth inhibition: 92.3% (active)
--
Molecule: O=C(NC1CCN(Cc2ccccc2)CC1)c1ccccc1I
growth inhibition: 74% (active)
--
Molecule: COc1ccc(CN2CCCN(Cc3ccc(OC)cc3OC)C2c2cc(Br)ccc2O)c(OC)c1
growth inhibition: 27.9% (inactive)
--
Molecule: O=C(O)CCC12CCCCC1=NC1(CCCCC1)NC2=O (stereo not drawn)
growth inhibition: 67% (inactive)
--
Molecule: COc1ccc(C2=C/C(=C3\C(=O)Oc4ccccc4C3=O)SS2)cc1
growth inhibition: -3.75% (inactive)
--
Molecule: CN1C(=O)CCC2[C@@H]3CC=C4C[C@@H](O)CC[C@]4(C)C3CC[C@@]21C (stereo partly drawn)
growth inhibition: 57.7% (inactive)
--
Molecule: CC(C)(C)C(=O)OCC(=O)c1ccc(-c2ccccc2)cc1
growth inhibition: 65% (inactive)
--
Molecule: CCN(CC)CCNc1cc(C)nc2c1ccc1c2ccc2c(NCCN(CC)CC)cc(C)nc21
growth inhibition: 96% (active)
--
Molecule: CCOP(=O)(OCC)C(NC(=O)OCC(Cl)(Cl)Cl)n1nnc(C(=O)OC)c1C(=O)OC (stereo not drawn)
growth inhibition: -0.7% (inactive)
--
Molecule: CCOC(=O)c1sc2[n+](c1C)C(=O)/C(=C/c1ccc([N+](=O)[O-])cc1)S2
growth inhibition: 96.8% (active)
--
Molecule: CC(C)CCOC(=O)c1ccc(O)cc1.[Zn+2]
growth inhibition: 88.5% (active)
--
Molecule: CC(C)C(O)(C(=O)OCN1C(=O)C2C3C=CC(C2C1=O)C1C2C(=O)N(COC(=O)C(O)(C(C)C)C(C)O)C(=O)C2C31)C(C)O (stereo not drawn)
growth inhibition: -2% (inactive)
--
Molecule: COc1cc(/C=C2\Sc3scc(-c4cccc([N+](=O)[O-])c4)[n+]3C2=O)cc(OC)c1OC
growth inhibition: 99.1% (active)
--
Molecule: CCC(C)(O)C#Cc1ccc(C)nc1 (stereo not drawn)
growth inhibition: 13.8% (inactive)
--
Molecule: O=C(Nc1ccc2c(c1)Cc1cc([N+](=O)[O-])c(F)cc1-2)C(F)(F)F
growth inhibition: -4.35% (inactive)
--
Molecule: CCC(c1ccc(O)cc1)C(CC)c1ccc(O)c(CN(C)C)c1 (stereo not drawn)
growth inhibition: 36.5% (inactive)
--
Molecule: O=C1Nc2c(Cl)cc(Cl)cc2/C1=N/N=C/c1ccco1
growth inhibition: 55.4% (inactive)
--
Molecule: O=C1C(C(O)(C(F)(F)Cl)C(F)(F)Cl)CCC1C(O)(C(F)(F)Cl)C(F)(F)Cl (stereo not drawn)
growth inhibition: 98.1% (active)
--
Molecule: Cc1cc(N/N=C(\c2ccccc2)c2ccccn2)nc2ccccc12
growth inhibition: 97.4% (active)
--
Molecule: O=C1C2CCCC3CCCC(C(=O)N1O)C32 (stereo not drawn)
growth inhibition: 92% (active)
--
Molecule: C=C(Br)CN(CC(=C)Br)C(C)=O
growth inhibition: -1.4% (inactive)
--
Molecule: Clc1ccc(C(CCOc2ccccc2Br)Cn2ccnc2)c(Cl)c1 (stereo not drawn)
growth inhibition: 99.7% (active)
--
Molecule: CCOC(=O)C1=C(c2ccccc2)OC(N)=C(C#N)C1c1ccc(C)cc1 (stereo not drawn)
growth inhibition: 80.1% (active)
--
Molecule: O=C(/C=C(\OB(F)F)c1ccccc1)c1ccccc1
growth inhibition: 98.2% (active)
